Measured CC50 at 72 h by item
- ASSAY INFO: MTT cytotoxicity assay in MDCKII wild type cells
- Format: cell-based
- SETUP CONDITIONS: dog, MDCKII wild type cells, read-out: LC50, MDCKII

COMPOUND	CC50 at 72 h
O=C1[C@H](NC[C@@H](O)c2ccc(F)cc2)[C@@H](c2ccc(O)cc2)N1c1ccc(F)cc1	> 100 µM
O=C1[C@H](CC[C@H](O)c2ccc(F)cc2)[C@@H](c2ccc(O)cc2)N1c1ccc(F)cc1 [Compound 1, ezetimibe, reference compound]	> 100 µM
O=C1[C@H](NC[C@H](O)c2ccc(F)cc2)[C@@H](c2ccc(O)cc2)N1c1ccc(F)cc1	> 100 µM

// moving on: another record for CC50 at 72 h
Report CC50 at 72 h for O=C1[C@H](NCC(O)c2ccc(F)cc2)[C@@H](c2ccc(O)cc2)N1c1ccc(F)cc1 (mixture of isomers) please.
> 100 µM

* * *

Property: pIC50; scope: individual compounds
- TARGET ENTITY: human NPC1L1 (Homo sapiens, UniProt Q9UHC9)
- Sequence (Q9UHC9 22-1359): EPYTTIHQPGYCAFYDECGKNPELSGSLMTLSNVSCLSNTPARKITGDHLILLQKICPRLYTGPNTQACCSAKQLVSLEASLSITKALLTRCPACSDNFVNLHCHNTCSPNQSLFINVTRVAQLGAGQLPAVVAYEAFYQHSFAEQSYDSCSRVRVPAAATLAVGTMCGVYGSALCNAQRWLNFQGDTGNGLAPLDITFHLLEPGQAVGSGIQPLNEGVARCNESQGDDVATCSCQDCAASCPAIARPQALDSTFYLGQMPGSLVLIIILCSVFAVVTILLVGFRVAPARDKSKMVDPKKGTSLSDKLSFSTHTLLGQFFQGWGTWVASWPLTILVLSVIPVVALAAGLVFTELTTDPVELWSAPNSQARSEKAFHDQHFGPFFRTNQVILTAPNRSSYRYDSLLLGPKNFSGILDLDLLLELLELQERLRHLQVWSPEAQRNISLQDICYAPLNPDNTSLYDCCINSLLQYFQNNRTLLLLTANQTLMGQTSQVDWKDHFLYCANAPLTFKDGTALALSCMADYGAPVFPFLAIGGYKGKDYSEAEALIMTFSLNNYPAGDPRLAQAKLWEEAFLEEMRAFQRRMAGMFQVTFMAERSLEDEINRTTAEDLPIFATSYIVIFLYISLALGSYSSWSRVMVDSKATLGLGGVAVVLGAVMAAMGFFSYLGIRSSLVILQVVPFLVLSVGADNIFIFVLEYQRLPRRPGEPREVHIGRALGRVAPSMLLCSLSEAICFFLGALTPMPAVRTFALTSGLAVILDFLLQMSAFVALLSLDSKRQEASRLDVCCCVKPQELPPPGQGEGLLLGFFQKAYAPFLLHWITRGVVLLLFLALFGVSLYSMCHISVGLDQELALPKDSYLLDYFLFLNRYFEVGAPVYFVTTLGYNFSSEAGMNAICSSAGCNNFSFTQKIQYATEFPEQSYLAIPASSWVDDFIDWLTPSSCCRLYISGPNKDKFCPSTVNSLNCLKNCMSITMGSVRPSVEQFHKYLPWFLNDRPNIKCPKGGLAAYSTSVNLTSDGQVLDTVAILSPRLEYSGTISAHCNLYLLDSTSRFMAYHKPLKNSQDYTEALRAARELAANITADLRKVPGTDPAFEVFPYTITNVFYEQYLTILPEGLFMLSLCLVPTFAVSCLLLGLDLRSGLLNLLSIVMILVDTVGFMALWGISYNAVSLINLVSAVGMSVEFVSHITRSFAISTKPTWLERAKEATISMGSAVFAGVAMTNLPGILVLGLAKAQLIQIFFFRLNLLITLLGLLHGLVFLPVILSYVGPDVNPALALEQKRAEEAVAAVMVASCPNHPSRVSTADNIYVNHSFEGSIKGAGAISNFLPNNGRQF
- ASSAY INFO: In vitro [3H]cholesterol uptake assay in hNPC1L1/MDCKII cells
- SETUP CONDITIONS: 1 h, read-out: IC50, cholesterol uptake inhibition
Value format note: pIC50 is -log10 of concentration (mol/L); just state the number.

Quick check: pIC50 of O=C1[C@H](NC[C@H](O)c2ccc(F)cc2)[C@@H](c2ccc(O)cc2)N1c1ccc(F)cc1 [Compound 5] ?
4.14

Please look up its pIC50: O=C1[C@H](NCC(O)c2ccc(F)cc2)[C@@H](c2ccc(O)cc2)N1c1ccc(F)cc1 (stereo partly shown) [6/5 (85:15)]
4.15

Fill in the blank: the reported pIC50 of O=C1[C@H](NC[C@@H](O)c2ccc(F)cc2)[C@@H](c2ccc(O)cc2)N1c1ccc(F)cc1 [Compound 6] is ____.
4.10

Recorded pIC50 of O=C1[C@H](NCC(O)c2ccc(F)cc2)[C@@H](c2ccc(O)cc2)N1c1ccc(F)cc1 (mixture of isomers) [5/6 (70:30)] , please.
4.22
